B1: SLC35F2 (parent)
chain: SFMPLVIKVTSATSVNLGILTADL

variants of: B1; assay: protein stability index of a GFP-peptide fusion (GPS, HEK-293T) (PSI 1-6); higher = more stable; details: c terminus: a fixed tail appended;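 also: lentivirally expressed fusions sorted by FACS into six bins by GFP to DsRed ratio, PSI derived from sequencing read proportions per bin multiplied by bin number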
Listed below: protein stability index values for each entry.
// response body must contain only the number

Worked cases, protein stability index given:
SFMPLVIKVTSATWVNLGILTADL [S14W]
2.61
SFMPLHIKVTSATSVNLGILTADL [V6H]
2.74

Now take the following variant into account.
Inquiry: protein stability index for SFMPLVIKVTSATSMNLGILTADL [V15M] ?
Reply text: 3.77
